Target: MMP-9 (Homo sapiens, UniProt P14780)
Sequence (P14780 94-707): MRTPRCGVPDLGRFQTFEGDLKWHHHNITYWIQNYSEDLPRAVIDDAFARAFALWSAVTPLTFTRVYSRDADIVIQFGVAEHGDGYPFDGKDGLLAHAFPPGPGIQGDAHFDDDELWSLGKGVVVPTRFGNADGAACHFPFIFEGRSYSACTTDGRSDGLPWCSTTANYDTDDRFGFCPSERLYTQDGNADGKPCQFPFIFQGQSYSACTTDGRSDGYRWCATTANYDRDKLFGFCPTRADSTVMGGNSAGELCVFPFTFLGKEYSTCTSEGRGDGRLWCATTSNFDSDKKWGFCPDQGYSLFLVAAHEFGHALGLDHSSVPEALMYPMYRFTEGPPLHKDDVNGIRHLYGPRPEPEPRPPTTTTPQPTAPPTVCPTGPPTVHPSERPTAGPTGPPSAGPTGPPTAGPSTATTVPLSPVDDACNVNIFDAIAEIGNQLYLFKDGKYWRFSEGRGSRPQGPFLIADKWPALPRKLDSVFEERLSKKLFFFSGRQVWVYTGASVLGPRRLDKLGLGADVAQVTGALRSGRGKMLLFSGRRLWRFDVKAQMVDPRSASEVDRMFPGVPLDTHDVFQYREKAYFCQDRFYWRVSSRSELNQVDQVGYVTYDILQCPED
Experiment: Fluorometric substrate assay (MMP inhibitor profiling kit)
Conditions: human recombinant MMP-9, 60 min preincubation, four-parameter fit
Readout: pIC50
# reply with the number alone; pIC50 is -log10 of concentration in mol/L

Query: pIC50; subject: C[C@@H]1CCO[C@H]2Cn3cc(C(=O)NCc4ccc(F)cc4F)c(=O)c(O)c3C(=O)N12 [DTG, Dolutegravir]
4.96
